# reported Ki; entries follow
- testedOn: T1, hCD71-Nluc fusion protein (human, UniProt P02786 1-760)
- T1 construct: whole, on cells; Used as crude membrane fractions of HEK293 cells stably expressing hCD71-Nluc; also called human transferrin receptor, CD71, fused to NanoLuc; not shown: NanoLuc (ProMega) luciferase joined through its N-terminal Val
- assayText: nanoBRET competition, tracer BCY17871-1598988 60 nM, HEK293 hCD71-Nluc membranes
Just the number please, in nM, no unit attached.

>  <binder>
CPXDAYLGCXSYCEPWX (as printed CP[HyP]DAYLGC[tBuGly]SYCEPW[K(N3)]: N-terminal acetyl; C-terminal amide; three Cys bound to TATB scaffold; [HyP] 4-trans-hydroxy-L-proline at 3; [tBuGly] t-butyl glycine at 10; [K(N3)] 6-azido lysine at 17 joined via BCN linker to oligonucleotide 1598988) [1598988-BCY17901]

>  <assayResult>
4.4

$$$$

Can you look up the measured Ki of CPXDAYLGCXSYCEPWX (as printed CP[HyP]DAYLGC[tBuGly]SYCEPW[K(N3)]: N-terminal acetyl; C-terminal amide; three Cys bound to TATB scaffold; [HyP] 4-trans-hydroxy-L-proline at 3; [tBuGly] t-butyl glycine at 10; [K(N3)] 6-azido lysine at 17 joined via BCN linker to oligonucleotide 1591118, also called Compound No. 1591118 conjugated to BCY17901) [1591118-BCY17901] for me?
1.4

Record request: Ki value, item CPXDAYLGCXSYCX (as printed CP[HyP]DAYLGC[tBuGly]SYC[K(N3)]: N-terminal acetyl; C-terminal amide; three Cys bound to TATB scaffold; [HyP] 4-trans-hydroxy-L-proline at 3; [tBuGly] t-butyl glycine at 10; [K(N3)] 6-azido lysine at 14 joined via BCN linker to oligonucleotide 1591118, also called Compound No. 1591118 conjugated to BCY17896) [1591118-BCY17896]
3.1

Fill in: Ki of CPXDAYLGCXSYCX (as printed CP[HyP]DAYLGC[tBuGly]SYC[K(N3)]: N-terminal acetyl; C-terminal amide; three Cys bound to TATB scaffold; [HyP] 4-trans-hydroxy-L-proline at 3; [tBuGly] t-butyl glycine at 10; [K(N3)] 6-azido lysine at 14 joined via BCN linker to oligonucleotide 1598988) [1598988-BCY17896] is ___
9.9

Just for reference, patent US20240382605A1 is where these values come from.
